- SYSTEM UNDER TEST: T1, EsCas13d, nuclease-dead (Eubacterium siraeum, UniProt B0MS50, R295A;H300A;R849A;H854A)
- T1 sequence: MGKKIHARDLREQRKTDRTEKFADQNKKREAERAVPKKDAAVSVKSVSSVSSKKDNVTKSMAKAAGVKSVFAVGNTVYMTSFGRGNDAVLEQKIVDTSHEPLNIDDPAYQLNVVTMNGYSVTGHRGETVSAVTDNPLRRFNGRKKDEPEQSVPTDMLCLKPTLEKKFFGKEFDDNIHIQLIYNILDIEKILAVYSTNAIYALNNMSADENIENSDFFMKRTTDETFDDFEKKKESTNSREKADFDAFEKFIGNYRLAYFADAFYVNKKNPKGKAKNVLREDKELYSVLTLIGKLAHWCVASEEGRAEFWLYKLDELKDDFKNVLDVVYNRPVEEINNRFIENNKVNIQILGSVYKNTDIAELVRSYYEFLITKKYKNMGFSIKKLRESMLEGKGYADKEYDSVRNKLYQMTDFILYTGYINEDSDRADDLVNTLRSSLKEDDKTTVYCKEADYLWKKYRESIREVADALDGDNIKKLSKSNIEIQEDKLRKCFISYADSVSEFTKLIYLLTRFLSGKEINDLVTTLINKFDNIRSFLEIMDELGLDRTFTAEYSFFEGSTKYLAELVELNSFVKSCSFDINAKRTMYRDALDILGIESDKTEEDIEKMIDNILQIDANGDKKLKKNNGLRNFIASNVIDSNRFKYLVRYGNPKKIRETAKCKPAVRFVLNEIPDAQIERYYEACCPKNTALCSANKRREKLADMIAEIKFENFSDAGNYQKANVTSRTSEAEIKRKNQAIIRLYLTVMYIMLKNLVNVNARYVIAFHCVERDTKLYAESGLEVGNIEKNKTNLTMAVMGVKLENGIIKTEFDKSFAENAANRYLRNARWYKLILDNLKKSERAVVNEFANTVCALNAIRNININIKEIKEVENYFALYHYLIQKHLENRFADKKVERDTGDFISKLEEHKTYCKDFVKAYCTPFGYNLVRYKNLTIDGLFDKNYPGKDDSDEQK
- PROCEDURE SUMMARY: crRNA (strand 1, pre-loaded); Mg2+; 40 mM Tris-HCl pH 7.5, 150 mM NaCl, 6 mM MgCl2, 1 mM DTT, 0.1% Tween-20, 0.2 mg/ml BSA; 25 C; 10 min per concentration, then washed
- ASSAY CONTEXT: tags: His6-TwinStrep-SUMO cleaved; N-terminal SNAP kept (SNAP-Surface 488); label: 3' end held by stalled T7 RNA polymerase
ASSAY METRIC: pKd
Numbers only, as −log10 of the molar value.

Would you please look over these solved cases?
>  <BINDER>
target 1 A18U,A20G (mixed) RNA 1: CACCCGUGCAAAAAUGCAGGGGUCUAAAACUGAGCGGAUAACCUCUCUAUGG RNA 2: GGGAAUGGAUCCACAUCUACGAAUUCGUACCGUUGAGAGGUUAUCCGCUCACCGAGAUCGGAAGAGCACACGU

>  <pKd>
7.03

$$$$
>  <BINDER>
target 1 U8A,A18U (mixed) RNA 1: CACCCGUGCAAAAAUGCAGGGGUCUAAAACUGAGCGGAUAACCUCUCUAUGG RNA 2: GGGAAUGGAUCCACAUCUACGAAUUCGUACCAUUGAGAGGUUAACCGCUCACCGAGAUCGGAAGAGCACACGU

>  <pKd>
7.11

$$$$

Below is a list of binders. For each, state its recorded pKd.
1. target 2 MT 5'PFS GCG 3'PFS UCC (mixed) RNA 1: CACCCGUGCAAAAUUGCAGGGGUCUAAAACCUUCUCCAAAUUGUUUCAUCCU RNA 2: GGGAAUGGAUCCACAUCUACGAAUUCGCGAGGAUGAAACAAUUUGGAGAAGUCCAGAUCGGAAGAGCACACGU
2. target 3 insC 3' of 22,insG 3' of 22 (mixed) RNA 1: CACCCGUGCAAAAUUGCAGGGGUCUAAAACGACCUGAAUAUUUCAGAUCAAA RNA 2: GGGAAUGGAUCCACAUCUACGAAUUCGUUUCGUUGAUCUGAAAUAUUCAGGUCUGCAGAUCGGAAGAGCACACGU
3. target 1 A1C,C4G (mixed) RNA 1: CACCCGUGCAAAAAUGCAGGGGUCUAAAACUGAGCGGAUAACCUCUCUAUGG RNA 2: GGGAAUGGAUCCACAUCUACGAAUUCGUACCAUAGAGAGGUUAUCCGGUCCCCGAGAUCGGAAGAGCACACGU
4. target 1 MT 5'PFS GUG 3'PFS CCU (mixed) RNA 1: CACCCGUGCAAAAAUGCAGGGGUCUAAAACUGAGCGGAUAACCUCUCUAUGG RNA 2: GGGAAUGGAUCCACAUCUACGAAUUCGUGCCAUAGAGAGGUUAUCCGCUCACCUAGAUCGGAAGAGCACACGU
5. target 1 insA 3' of 17,insU 3' of 6 (mixed) RNA 1: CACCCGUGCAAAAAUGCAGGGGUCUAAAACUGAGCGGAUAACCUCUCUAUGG RNA 2: GGGAAUGGAUCCACAUCUACGAAUUCGUACCAUAGAAGAGGUUAUCCUGCUCACCGAGAUCGGAAGAGCACACGU
6. target 1 MT 5'PFS GAC 3'PFS ACU (mixed) RNA 1: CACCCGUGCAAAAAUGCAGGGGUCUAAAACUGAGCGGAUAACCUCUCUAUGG RNA 2: GGGAAUGGAUCCACAUCUACGAAUUCGACCCAUAGAGAGGUUAUCCGCUCAACUAGAUCGGAAGAGCACACGU
7. target 1 insU 3' of 14,insC 3' of 12 (mixed) RNA 1: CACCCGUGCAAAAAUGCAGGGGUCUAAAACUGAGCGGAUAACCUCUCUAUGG RNA 2: GGGAAUGGAUCCACAUCUACGAAUUCGUACCAUAGAGAUGGCUUAUCCGCUCACCGAGAUCGGAAGAGCACACGU
8. target 1 MT 5'PFS GUG 3'PFS CCA (mixed) RNA 1: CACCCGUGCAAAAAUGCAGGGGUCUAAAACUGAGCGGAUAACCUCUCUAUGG RNA 2: GGGAAUGGAUCCACAUCUACGAAUUCGUGCCAUAGAGAGGUUAUCCGCUCACCAAGAUCGGAAGAGCACACGU

1: 7.52; 2: 7.18; 3: 7.97; 4: 7.97; 5: 7.84; 6: 7.85; 7: 7.30; 8: 7.34

Below is a list of binders. For each, state its recorded pKd.
1. target 1 insG 3' of 10,insG 3' of 6 (mixed) RNA 1: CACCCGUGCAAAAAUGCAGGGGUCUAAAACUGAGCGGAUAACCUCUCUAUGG RNA 2: GGGAAUGGAUCCACAUCUACGAAUUCGUACCAUAGAGAGGUUGAUCCGGCUCACCGAGAUCGGAAGAGCACACGU
2. target 1 insA 3' of 7,insG 3' of 4 (mixed) RNA 1: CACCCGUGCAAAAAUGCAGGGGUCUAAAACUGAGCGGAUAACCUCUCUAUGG RNA 2: GGGAAUGGAUCCACAUCUACGAAUUCGUACCAUAGAGAGGUUAUCACGCGUCACCGAGAUCGGAAGAGCACACGU
3. target 1 G17U,U19C (mixed) RNA 1: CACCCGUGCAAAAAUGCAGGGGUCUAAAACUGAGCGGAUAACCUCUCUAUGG RNA 2: GGGAAUGGAUCCACAUCUACGAAUUCGUACCACAUAGAGGUUAUCCGCUCACCGAGAUCGGAAGAGCACACGU
4. target 1 MT 5'PFS UAA 3'PFS ACA (mixed) RNA 1: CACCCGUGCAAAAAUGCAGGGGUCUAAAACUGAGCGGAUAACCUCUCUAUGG RNA 2: GGGAAUGGAUCCACAUCUACGAAUUCUAACCAUAGAGAGGUUAUCCGCUCAACAAGAUCGGAAGAGCACACGU

1: 7.65; 2: 8.27; 3: 7.84; 4: 7.36

Taken from paper PMC10786891.
